METHOD: Kinetic solubility of the compound at pH 2 by HPLC analysis
Type: physicochemical
MEASUREMENT_PARAMETERS: buffer, read-out: Kinetic_solubility

STRUCTURE	solubility kinetic, µM
CC1(C)CN2CCC[C@]2(CNc2cc(F)c(S(=O)(=O)Nc3nccs3)cc2Cl)C1	143
O=S(=O)(Nc1nccs1)c1cc(Cl)c(NCC23CCCN2CCC3)cc1F	159

----------
METHOD: Lipophilicity, log D of compound by HPLC analysis
Assay type: physicochemical

COMPOUND	logD
O=S(=O)(Nc1ccncn1)c1cc(Cl)c(NCC23CCCN2CCC3)cc1F	-0.2
O=S(=O)(Nc1ncns1)c1cc(Cl)c(NCC23CCCN2CCC3)cc1F	0.4
Cc1cnc(NS(=O)(=O)c2cc(Cl)c(NCC34CCCN3CCC4)cc2F)s1	1.1
O=S(=O)(Nc1ncns1)c1cc(F)c(NCC23CCCN2CCC3)cc1F	0
Cc1nc(NS(=O)(=O)c2cc(Cl)c(NCC34CCCN3CCC4)cc2F)sc1F	1.3
Cc1csc(NS(=O)(=O)c2cc(Cl)c(NCC34CCCN3CCC4)cc2F)n1	1.1
O=S(=O)(Nc1ncc(F)s1)c1cc(Cl)c(NCC23CCCN2CCC3)cc1F	1
O=S(=O)(Nc1nccs1)c1cc(Cl)c(NC[C@]23CCCN2C[C@@H](F)C3)cc1F	1.5
CC1(C)CN2CCC[C@]2(CNc2cc(F)c(S(=O)(=O)Nc3nccs3)cc2Cl)C1	1.7
O=S(=O)(Nc1nccs1)c1cc(Cl)c(NC[C@@]23CCCN2C[C@H](F)C3)cc1F	1.5
O=S(=O)(Nc1nccs1)c1cc(Cl)c(NCC23CCCN2CC(F)(F)C3)cc1F (stereo not drawn)	1.7
O=S(=O)(Nc1cscn1)c1cc(Cl)c(NCC23CCCN2CCC3)cc1F	0.7
O=S(=O)(Nc1ncc(Cl)s1)c1cc(Cl)c(NCC23CCCN2CCC3)cc1F	1.3
O=S(=O)(Nc1cccc(F)n1)c1cc(Cl)c(NCC23CCCN2CCC3)cc1F	1
O=S(=O)(Nc1nccs1)c1cc(Cl)c(NCC23CCCN2CCC3)cc1F	0.7
O=S(=O)(Nc1nccs1)c1cc(Cl)c(NCCC23CCCN2CCC3)cc1F	0.6
O=S(=O)(Nc1nccs1)c1cc(Cl)c(NCC23CCCCN2CCCC3)cc1F	2.2
CC1(C)CN2CCC[C@@]2(CNc2cc(F)c(S(=O)(=O)Nc3nccs3)cc2Cl)C1	1.7
